Experiment: soluble fraction after stress (log2 fold change); higher = more stays soluble; pooled small domains, quantitative proteomics
Conditions: stress: pH 4
metric_name: soluble fraction (log2)

macromolecule_sequence=HMKDEGSLKVIGQMVVIGIPQSEAKRFANTYTVAQIRAALQYTQKRSEDKNASKLENVAAYFRQALVRNWG qualifier_operator=≥ readout_value=0.43
macromolecule_sequence=HMKDYQGNILIQSEGDRIDKFLFKYFNSFSRTKIKNHIINGNILVNDKNTIPAYVLKINDKISYDLSTSVK qualifier_operator== readout_value=-0.877
macromolecule_sequence=HMFPELSEEEQIIVSLLQKQPDGLQINTLVVESNIPVNRMSGILFELEMKGIIRMAAGGVYRLL qualifier_operator== readout_value=-0.785
macromolecule_sequence=HMDAISYTQFMEEAKQGRINKVEVQGRTLMVTPTDGKAYSLTSPGDLWMTTDLMKYGVNVYGAE qualifier_operator== readout_value=-0.527
